- assay system: T1, human Programmed Death-1 (PD-1) expressed on the cell surface (human, UniProt Q15116 25-288)
- T1 construct: whole, on cells; also called CD279; Human PD-1 Expressed on HEK293 Surface
- T1 sequence (Q15116 25-288): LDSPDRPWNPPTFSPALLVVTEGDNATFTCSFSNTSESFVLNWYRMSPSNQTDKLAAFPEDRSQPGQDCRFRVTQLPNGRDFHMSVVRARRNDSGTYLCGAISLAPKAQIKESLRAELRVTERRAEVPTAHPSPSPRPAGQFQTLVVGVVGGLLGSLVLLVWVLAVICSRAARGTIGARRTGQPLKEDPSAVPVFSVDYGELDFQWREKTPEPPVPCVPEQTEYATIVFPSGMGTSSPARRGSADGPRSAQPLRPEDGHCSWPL
- test method notes: cell binding, HEK293 cells expressing human PD-1, fluorescent anti-mouse secondary

>  <binder>
100244_C7VH10_100245_C8VK5 (antibody, V domains shown, Mouse variable regions; cloned into pFUSE-CHIg-mG1 (murine IgG1 Fc), expressed in HEK293) VH: EVQLQESGPELVRPGASVKMSCKASGYTFTSYWMHWVKQRPGQGLEWIGMIDPSNSETSLNQKFKDKATLNVDKSSKTAYMQLSSLTSEDSAVYYCARSRGNYAYDMDYWGQGTSVTVSS VL: DIVITQTTAIMSASPGEKVTLTCSASSSVSSNYLYWYQQRPGSSPKLWIYSTSNLASGVPARFSGSGSGTSYSLTISSMEAEDAASYFCHQWSSYPPTFGSGTKLEIK

>  <binding result>
binds

$$$$
>  <binder>
100244_C7VH10_100245_C8VK5m1 (antibody, V domains shown, Mouse variable regions; cloned into pFUSE-CHIg-mG1 (murine IgG1 Fc), expressed in HEK293; also called 244C7m1) VH: EVQLQESGPELVRPGASVKMSCKASGYTFTSYWMHWVKQRPGQGLEWIGMIDPSNSETSLNQKFKDKATLNVDKSSKTAYMQLSSLTSEDSAVYYCARSRGNYAYDMDYWGQGTSVTVSS VL: DIVLTQTPAIMSASPGEKVTLTCSASSSVSSNYLYWYQQRPGSSPKLWIYSTSNLASGVPARFSGSGSGTSYSLTISSMEAEDAASYFCHQWSSYPPTFGSGTKLEIK

>  <binding result>
binds

$$$$
>  <binder>
100258_F6VH4_100259_F6VK1 (antibody, V domains shown, Mouse variable regions; cloned into pFUSE-CHIg-mG1 (murine IgG1 Fc), expressed in HEK293) VH: EVQLQESGPELVRPGASVKMSCKASGYTFTSYWMHWVKQRPGQGLEWIGMIEPSSSETSLNQKFKDKATLNVDKSSNTAYMQLSSLTSEDSAVYYCARSRGNYAYEMDYWGQGTSVTVSS VL: DIVMTQTTATMSASPGEKVTLTCSASSSVNSNYLYWYQQKPGSSPKVWIYSTSNLASGVPARFSGSGSGTSYSLTISSMEAEDAASYFCHQWSSYPPTFGSGTKLELK

>  <binding result>
binds

$$$$
